Tested on: Aspergillus terreus
Run description: Antimicrobial activity against Aspergillus terreus MTCC 1782 at 750 ug/ml after 72 hrs by cup plate method
Format: functional
Settings: MTCC 1782, 72 h, read-out: IZ
Assay metric: zone of inhibition at 750 µg/mL (mm)
I only need the number, in mm, no unit after it.

Use the examples below as a reference point.
N#CC1=C(N)OC(c2ccccc2)=CC1c1c(-c2ccccc2)[nH]c2ccccc12 (stereo not drawn): 5
Cc1ccc2[nH]c(-c3ccccc3)c(C3C=C(c4ccccc4)Oc4nc5oc(=O)c(C#N)c(N)c5c(N)c43)c2c1 (stereo not drawn): 4
Cc1ccc2[nH]c(-c3ccccc3)c(C3C=C(c4ccc(Cl)cc4)Oc4[nH]nc(N)c43)c2c1 (stereo not drawn): 10

Then there is this molecule:
[ask] zone of inhibition at 750 µg/mL lookup needed for O=c1[nH]cnc2c1C(c1c(-c3ccccc3)[nH]c3ccc(Cl)cc13)C=C(c1ccc(Cl)cc1)O2 (stereo not drawn) , thanks.
[reply] 5
